Tested on: BT-549 breast
METHOD_SUMMARY: NCI tumour cell line growth inhibition, 48 h
Decision: TGI compared against 30 µM; not below it gives MET, below it gives NOT MET.

- O=C(/C=C(\Nc1ccccc1O)c1ccc(Br)cc1)C(Cl)(Cl)Cl: NOT MET
- Clc1ccc([I+]c2ccc(Cl)cc2Cl)c(Cl)c1: NOT MET
- COc1ccc2c(c1)C(=O)c1c-2c(=O)n(CCCN(C)C)c2cc(OC)c(OC)cc12: MET
- Cc1ccc(/C=C2\Cc3cc(C)c(C)cc3C2=O)c(C(=O)O)c1: MET
- CC(=O)N(O)c1ccc(/C=C/c2ccccc2)cc1: NOT MET
- N#Cc1c(-c2ccccc2)cc(-c2ccccc2)n(C2OCC(O)C(O)C2O)c1=S (stereo unspecified): MET
